Test system: affinity purified β2GPI-dependent antiphospholipid antibody
Test: Competitive inhibition ELISA: recombinant β2GPI proteins compete for antibody binding to coated full length recombinant β2GPI
Parameters: species or system human
Conditions: Ab 6509
Procedure: Microtiter plates (MaxiSorp™, Nalge Nunc International, Denmark) were coated with 50 μl of full length recombinant β2GPI at 10 μg/ml in 0.1 M bicarbonate, pH 9.5, incubated overnight at 4° C., washed three times with 0.15 M PBS, pH 7.2, and blocked for one hour at room temperature with 75 μl of 2% Non-fat Dried Milk (Carnation, 2% NFDM). […] The Optical Density, at 550 nm, was determined by reading the plates in a microplate autoreader (Bio-Teck Instruments, model EL3 11). […]
# maps each entry to its Max (maximum inhibition observed at concentrations tested)
Give a bare numeral; the unit % is implied.

Lookup result for -2345: recombinant β2GPI deletion mutant with domains 2-5 (protein) GRTPRVCPFAGILENGAVRYTTFEYPNTISFSCNTGFYLNGADSAKCTEEGKWSPELPVCAPIICPPPSIPTFATLRVYKPSAGNNSLYRDTAVFECLPQHAMFGNDTITCTTHGNWTKLPECREVKCPFPSRPDNGFVNYPAKPTLYYKDKATFGCHDGYSLDGPEEIECTKLGNWSAMPSCKASCKLPVKKATVVYQGERVKIQEKFKNGMLHGDKVSFFCKNKEKKCSYTEDAQCIDGTIEVPKCFKEHSSLAFWKTDASDVKPCGHHHHHH ; measured Max (maximum inhibition observed at concentrations tested): 20

Lookup result for 123--: recombinant β2GPI deletion mutant with domains 1, 2, 3 (protein) GRTCPKPDDLPFSTVVPLKTFYEPGEEITYSCKPGYVSRGGMRKFICPLTGLWPINTLKCTPRVCPFAGILENGAVRYTTFEYPNTISFSCNTGFYLNGADSAKCTEEGKWSPELPVCAPIICPPPSIPTFATLRVYKPSAGNNSLYRDTAVFECLPQHAMFGNDTITCTTHGNWTKLPECGHHHHHH ; measured Max (maximum inhibition observed at concentrations tested): 90

Lookup result for --345: recombinant β2GPI deletion mutant with domains 3, 4, 5 (protein) GRIICPPPSIPTFATLRVYKPSAGNNSLYRDTAVFECLPQHAMFGNDTITCTTHGNWTKLPECREVKCPFPSRPDNGFVNYPAKPTLYYKDKATFGCHDGYSLDGPEEIECTKLGNWSAMPSCKASCKLPVKKATVVYQGERVKIQEKFKNGMLHGDKVSFFCKNKEKKCSYTEDAQCIDGTIEVPKCFKEHSSLAFWKTDASDVKPCGHHHHHH ; measured Max (maximum inhibition observed at concentrations tested): 20
